Biological target: Adenylate kinase (Escherichia coli)
Experiment: Ability to inhibit Escherichia coli adenylate kinase III, activity expressed as Inhibition constant; Non competitive inhibition
pKi: −log10 of the molar value.
reported endpoint: pKi

>>> numeric_readout("O=C(CI)NCCCCCNc1ncnc2c1ncn2[C@@H]1O[C@H](COP(=O)(O)OP(=O)(O)OP(=O)(O)O)[C@@H](O)[C@H]1O")
2.32

###

Target: Adenylate kinase (Escherichia coli)
Test: Ability to inhibit Escherichia coli adenylate kinase II, activity expressed as Inhibition constant
reported endpoint: Ki (mM)

>>> numeric_readout("NCCCCCCNc1nc2c(N)ncnc2n1C1O[C@H](COP(=O)(O)OP(=O)(O)OP(=O)(O)O)[C@@H](O)[C@H]1O (some centres undefined)")
7.3
>>> numeric_readout("CC(=O)NCCCCCCNc1nc2c(N)ncnc2n1C1O[C@H](COP(=O)(O)OP(=O)(O)OP(=O)(O)O)[C@@H](O)[C@H]1O (some centres undefined)")
6.7
>>> numeric_readout("CN(CCCN(C)C(=O)CCCCNc1ncnc2c1ncn2[C@@H]1O[C@H](COP(=O)(O)OP(=O)(O)OP(=O)(O)O)[C@@H](O)[C@H]1O)C(=O)CCCCNC(=O)OCc1ccccc1")
6.8
>>> numeric_readout("O=C(NCCCCCNc1ncnc2c1ncn2C1O[C@H](COP(=O)(O)OP(=O)(O)OP(=O)(O)O)[C@@H](O)[C@H]1O)OCc1ccccc1 (some centres undefined)")
4.7
